Target: T1, human IL-17A (construct not specified) (human, UniProt Q16552 24-155, limits assumed)
T1 construct: also called huIL-17A
T1 sequence: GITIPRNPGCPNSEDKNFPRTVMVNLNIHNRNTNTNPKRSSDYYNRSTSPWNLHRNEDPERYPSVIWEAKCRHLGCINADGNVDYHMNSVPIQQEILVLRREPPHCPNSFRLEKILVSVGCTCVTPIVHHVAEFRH
Experiment: ELISA, coated huIL-17A, crude Fab extract
// Classic ELISA (normalized to XAB1 Fab) lookup, one value per entry
Give the value, in units of fold, as a plain number.

Previously resolved entries follow.
| BINDER | OBSERVED MEASUREMENT |
| --- | --- |
| MB491 (Fab, V domains shown, Fab variant of XAB1) VH: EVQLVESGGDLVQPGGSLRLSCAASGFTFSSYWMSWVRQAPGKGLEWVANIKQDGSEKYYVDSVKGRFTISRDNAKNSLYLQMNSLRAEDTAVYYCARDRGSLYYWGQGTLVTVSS VL: AIQLTQSPSSLSASVGDRVTITCRPSQGIFFWLAWYQQKPGKAPKLLIYDASSLENGVPSRFSGSGSGTDFTLTISSLQPEDFATYYCQQFNSYPLTFGGGTKVEIK | 2.1 |
| MB463 (Fab, V domains shown, Fab variant of XAB1) VH: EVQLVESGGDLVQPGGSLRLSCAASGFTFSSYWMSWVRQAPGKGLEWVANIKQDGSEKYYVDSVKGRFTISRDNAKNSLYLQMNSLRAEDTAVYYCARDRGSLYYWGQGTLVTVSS VL: AIQLTQSPSSLSASVGDRVTITCRPSQGIYFELAWYQQKPGKAPKLLIYDASSLENGVPSRFSGSGSGTDFTLTISSLQPEDFATYYCQQFNSYPLTFGGGTKVEIK | 2.7 |

The recorded Classic ELISA (normalized to XAB1 Fab) for MB486 (Fab, V domains shown, Fab variant of XAB1) VH: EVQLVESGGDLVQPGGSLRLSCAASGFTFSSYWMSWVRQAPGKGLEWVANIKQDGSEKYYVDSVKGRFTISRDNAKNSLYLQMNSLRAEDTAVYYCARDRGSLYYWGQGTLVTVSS VL: AIQLTQSPSSLSASVGDRVTITCRPSQGIWWMLAWYQQKPGKAPKLLIYDASSLENGVPSRFSGSGSGTDFTLTISSLQPEDFATYYCQQFNSYPLTFGGGTKVEIK is 1.9

Recorded Classic ELISA (normalized to XAB1 Fab) (binder MB447 (Fab, V domains shown, Fab variant of XAB1) VH: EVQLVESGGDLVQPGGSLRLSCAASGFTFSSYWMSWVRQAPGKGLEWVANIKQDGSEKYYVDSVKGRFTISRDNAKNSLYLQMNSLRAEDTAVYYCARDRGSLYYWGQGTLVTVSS VL: AIQLTQSPSSLSASVGDRVTITCRPSQGIFWWLAWYQQKPGKAPKLLIYDASSLENGVPSRFSGSGSGTDFTLTISSLQPEDFATYYCQQFNSYPLTFGGGTKVEIK ): 3

Item: MB483 (Fab, V domains shown, Fab variant of XAB1) VH: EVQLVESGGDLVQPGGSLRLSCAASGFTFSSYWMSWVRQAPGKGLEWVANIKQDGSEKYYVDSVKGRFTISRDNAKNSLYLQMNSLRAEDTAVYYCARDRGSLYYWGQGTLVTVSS VL: AIQLTQSPSSLSASVGDRVTITCRPSQGIFWTLAWYQQKPGKAPKLLIYDASSLENGVPSRFSGSGSGTDFTLTISSLQPEDFATYYCQQFNSYPLTFGGGTKVEIK | Classic ELISA (normalized to XAB1 Fab): 3.1

Origin of measurements: patent US20170291939A1
